substrate: Cc1cc(=O)oc2cc(O[C@@H]3OC[C@@H](O)[C@H](O)[C@H]3O)ccc12; assay: galactosyltransferase assay, HPLC-UV; assay type: biochemical, Homo sapiens; conditions: apparent, fixed 1 mM UDP-Gal, 10 mM MnCl2, 100 mM sodium cacodylate pH 7.0, 37 °C
// reported kcat per item
The reply should consist of the numeric value with the unit placed after it.

Known kcat results, listed for orientation:
PROTEIN: hβ4GalT7 (GST-β4GalT7) (Homo sapiens; R226K) (protein, truncated soluble form lacking the first 60 N-terminal amino acids (transmembrane domain and part of stem), GST fusion (tag kept), pET-41a(+), E. coli BL21(DE3), glutathione-Sepharose purified) VRGQGQETSGPPRACPPEPPPEHWEEDASWGPHRLAVLVPFRERFEELLVFVPHMRRFLSRKKIRHHIYVLNQVDHFRFNRAALINVGFLESSNSTDYIAMHDVDLLPLNEELDYGFPEAGPFHVASPELHPLYHYKTYVGGILLLSKQHYRLCNGMSNRFWGWGKEDDEFYRRIKGAGLQLFRPSGITTGYKTFRHLHDPAWRKRDQKRIAAQKQEQFKVDREGGLNTVKYHVASRTALSVGGAPCTVLNIMLDCDKTATPWCTFS
kcat: 1.35 ± 0.0483 s⁻¹

PROTEIN: hβ4GalT7 (GST-β4GalT7) (Homo sapiens; R270K) (protein, truncated soluble form lacking the first 60 N-terminal amino acids (transmembrane domain and part of stem), GST fusion (tag kept), pET-41a(+), E. coli BL21(DE3), glutathione-Sepharose purified) VRGQGQETSGPPRACPPEPPPEHWEEDASWGPHRLAVLVPFRERFEELLVFVPHMRRFLSRKKIRHHIYVLNQVDHFRFNRAALINVGFLESSNSTDYIAMHDVDLLPLNEELDYGFPEAGPFHVASPELHPLYHYKTYVGGILLLSKQHYRLCNGMSNRFWGWGREDDEFYRRIKGAGLQLFRPSGITTGYKTFRHLHDPAWRKRDQKKIAAQKQEQFKVDREGGLNTVKYHVASRTALSVGGAPCTVLNIMLDCDKTATPWCTFS
kcat: 0.812 ± 0.025 s⁻¹

PROTEIN: hβ4GalT7 (GST-β4GalT7) (Homo sapiens; Y199F) (protein, truncated soluble form lacking the first 60 N-terminal amino acids (transmembrane domain and part of stem), GST fusion (tag kept), pET-41a(+), E. coli BL21(DE3), glutathione-Sepharose purified) VRGQGQETSGPPRACPPEPPPEHWEEDASWGPHRLAVLVPFRERFEELLVFVPHMRRFLSRKKIRHHIYVLNQVDHFRFNRAALINVGFLESSNSTDYIAMHDVDLLPLNEELDYGFPEAGPFHVASPELHPLYHYKTFVGGILLLSKQHYRLCNGMSNRFWGWGREDDEFYRRIKGAGLQLFRPSGITTGYKTFRHLHDPAWRKRDQKRIAAQKQEQFKVDREGGLNTVKYHVASRTALSVGGAPCTVLNIMLDCDKTATPWCTFS
kcat: 1.2 ± 0.0967 s⁻¹

PROTEIN: hβ4GalT7 (GST-β4GalT7) (Homo sapiens; H195A) (protein, truncated soluble form lacking the first 60 N-terminal amino acids (transmembrane domain and part of stem), GST fusion (tag kept), pET-41a(+), E. coli BL21(DE3), glutathione-Sepharose purified) VRGQGQETSGPPRACPPEPPPEHWEEDASWGPHRLAVLVPFRERFEELLVFVPHMRRFLSRKKIRHHIYVLNQVDHFRFNRAALINVGFLESSNSTDYIAMHDVDLLPLNEELDYGFPEAGPFHVASPELHPLYAYKTYVGGILLLSKQHYRLCNGMSNRFWGWGREDDEFYRRIKGAGLQLFRPSGITTGYKTFRHLHDPAWRKRDQKRIAAQKQEQFKVDREGGLNTVKYHVASRTALSVGGAPCTVLNIMLDCDKTATPWCTFS
kcat: 1.932 ± 0.162 s⁻¹

Now turn to the next protein.
May I ask what kcat has been recorded for hβ4GalT7 (GST-β4GalT7) (Homo sapiens; H195R) (protein, truncated soluble form lacking the first 60 N-terminal amino acids (transmembrane domain and part of stem), GST fusion (tag kept), pET-41a(+), E. coli BL21(DE3), glutathione-Sepharose purified) VRGQGQETSGPPRACPPEPPPEHWEEDASWGPHRLAVLVPFRERFEELLVFVPHMRRFLSRKKIRHHIYVLNQVDHFRFNRAALINVGFLESSNSTDYIAMHDVDLLPLNEELDYGFPEAGPFHVASPELHPLYRYKTYVGGILLLSKQHYRLCNGMSNRFWGWGREDDEFYRRIKGAGLQLFRPSGITTGYKTFRHLHDPAWRKRDQKRIAAQKQEQFKVDREGGLNTVKYHVASRTALSVGGAPCTVLNIMLDCDKTATPWCTFS ?
1.49 ± 0.0217 s⁻¹
